Provide the reported Ratio CC50/IC50 of each item.
run-description: Selectivity index, ratio of CC50 for human HepG2(2.2.15) cells to IC50 for HBV infected in human HepG2(2.2.15) cells assessed as inhibition of HBeAg
Type: functional

Sample CCCCn1cc(C(=O)c2ccc(OC)cc2O)ccc1=O ; Ratio CC50/IC50 observed: <0.5

Sample COc1ccc(C(=O)c2ccc(=O)n(C3CCCCC3)c2)c(O)c1 ; Ratio CC50/IC50 observed: 20.55

Sample COc1ccc(/C(=N/C(C)C)c2ccc(=O)n(C(C)C)c2)c(O)c1 ; Ratio CC50/IC50 observed: >2.26

====

Provide the reported pIC50 of each item.
System: Hepatitis B virus
run-description: Antiviral activity against HBV infected in human HepG2(2.2.15) cells assessed as inhibition of HBeAg level after 9 days by ELISA
Assay type: functional, organism-based
conditions-used: HepG2 2.2.15, 216 h
pIC50: −log10 of the molar value.

Sample COc1ccc(C(=O)c2ccc(=O)n(C(C)C)c2)c(O)c1 ; pIC50 observed: < 3.07

Sample COc1ccc(C(=O)c2ccc(=O)n(-c3ccc([N+](=O)[O-])cc3)c2)c(O)c1 ; pIC50 observed: < 3.96

Sample CCC/N=C(\c1ccc(=O)n(CCC)c1)c1ccc(OC)cc1O ; pIC50 observed: < 3.91

====

run-description: Selectivity index, ratio of CC50 for human HepG2(2.2.15) cells to IC50 for HBV infected in human HepG2(2.2.15) cells assessed as inhibition of HBeAg
Format: functional
endpoint-label: Ratio CC50/IC50

Sample CCOc1ccc(-n2cc(C(=O)c3ccc(OC)cc3O)ccc2=O)cc1 ; Ratio CC50/IC50 observed: >1.99

Sample CCCCC/N=C(\c1ccc(=O)n(CCCCC)c1)c1ccc(OC)cc1O ; Ratio CC50/IC50 observed: 19.6

Sample COc1ccc(C(=O)c2ccc(=O)n(-c3ccccc3OC)c2)c(O)c1 ; Ratio CC50/IC50 observed: >2.3

====

Provide the reported IC50 of each item.
Tested on: Hepatitis B virus
run-description: Antiviral activity against HBV infected in human HepG2(2.2.15) cells assessed as inhibition of HBeAg level after 9 days by ELISA
Type: functional, organism-based
conditions-used: HepG2 2.2.15, 216 h

Sample COc1ccc(/C(=N/Cc2ccc(F)c(F)c2)c2ccc(=O)n(Cc3ccc(F)c(F)c3)c2)c(O)c1 ; IC50 observed: > 403 µM

Sample COc1ccc(C(=O)c2ccc(=O)n(/C=C/Nc3cccc4ccccc34)c2)c(O)c1 ; IC50 observed: > 97 µM

Sample COc1ccc(/C(=N/Cc2ccc(F)cc2)c2ccc(=O)n(Cc3ccc(F)cc3)c2)c(O)c1 ; IC50 observed: > 86.9 µM

====

run-description: Selectivity index, ratio of CC50 for human HepG2(2.2.15) cells to IC50 for HBV infected in human HepG2(2.2.15) cells assessed as inhibition of HBeAg
Format: functional
endpoint-label: Ratio CC50/IC50

Sample COc1ccc(C(=O)c2ccc(=O)n(C(C)C)c2)c(O)c1 ; Ratio CC50/IC50 observed: <0.82

Sample CCC/N=C(\c1ccc(=O)n(CCC)c1)c1ccc(OC)cc1O ; Ratio CC50/IC50 observed: <1

Sample COc1ccc(/C(=N/Cc2ccc(C)cc2)c2ccc(=O)n(Cc3ccc(C)cc3)c2)c(O)c1 ; Ratio CC50/IC50 observed: <0.17
